Molecular target: hCTLA-4 extracellular domain (aa 1-161) fused to the trans-membrane and cytoplasmic domain of hCD300a (aa … (human, UniProt Q9UGN4 181-299))
Sequence (Q9UGN4 other isoform, or with tags, fused parts or gaps limits assumed, form in doubt): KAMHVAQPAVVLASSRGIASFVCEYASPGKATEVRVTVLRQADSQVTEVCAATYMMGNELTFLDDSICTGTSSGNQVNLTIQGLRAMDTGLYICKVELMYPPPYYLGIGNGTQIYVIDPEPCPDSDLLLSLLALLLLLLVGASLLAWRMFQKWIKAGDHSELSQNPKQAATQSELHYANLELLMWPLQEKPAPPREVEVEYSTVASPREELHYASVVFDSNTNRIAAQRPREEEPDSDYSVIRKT
Test: cell-based or functional assay
// values below are reported EC50, T-cell/APC NFAT-luciferase assay, +Fc Block
The reply must contain the numeric value and, after it, the unit.

Sure, the documented EC50, T-cell/APC NFAT-luciferase assay, +Fc Block for H1H19273P (antibody, human IgG1, V domains shown) VH: QITLKESGPTLVKPTQTLTLTCTFSGFSLSTSGVGVGWIRQSPGRALEWLALIYWNDHERYSPSLKSRLTITKDTSKNLVVLAMANMDPVDTATYFCAHRNIEYRRSYFFDYWGQGTLVTVSS VL: DIQMTQSPSSVSASVRDRVTVTCRASQDINNWLAWYQQKPGKAPKLLIYAASSLQSGVPSRFSGSGSGTDFTLTISSLQPEDFATYYCQQANTFPFTFGPGTKVDIK is 3.83 nM

Sure, the documented EC50, T-cell/APC NFAT-luciferase assay, +Fc Block for H1H19303P (antibody, human IgG1, kappa, V domains shown, also called REGN4659) VH: EVQLVESGGGLVQPGGSLRLSCAASGFTFSNYEMSWVRQAPGKGLEWVSSIRTSGTTKYYADSMKGRFTISRDNAKNSLYLQMNSLRAEDTAVYYCAGGGTFLHYWGQGTLVTVSS VL: DIQMTQSPSSVSASVGDRVTITCRASQGIASYLAWYQQKPGKAPKLLIYAASSLQTGVPSRFSGSGYGTDFTLTISSLQPEDFATYYCQQAKSFPMYTFGQGTKLEIKR is 1.73 nM

Sure, the documented EC50, T-cell/APC NFAT-luciferase assay, +Fc Block for H1H19313P (antibody, human IgG1, V domains shown) VH: QITLKESGPTLVKPTQTLTLTCTFSGFSLSTSGVGVGWIRQPPGVALEWLALIYWNDDKRFSPSLKSRLTITKDTSKNQVVLTMTNMDPVDTATYYCAHRRLGLYYFDYWGQGTLVTVSS VL: DIQLTQSPSFLSASVGDRVTITCWASQGISSYLAWYQQKPGKAPKLLIYAASTLQSGVPSRFSGSGSGTEFTLTISSLQPEDFATYYCQQVHIYPFTFGPGTKVDIK is 3.47 nM

Sure, the documented EC50, T-cell/APC NFAT-luciferase assay, +Fc Block for H1H19291P (antibody, human IgG1, V domains shown) VH: QVQLVESGGGVVQPGRSLRLSCAASGFTFSTYGMHWVRQAPGKGLEWVTVIWYDGNNKYYADSVKGRFTISRDNSKNTLYLQMNNLRAEDTALYYCARGGGRLSYYHDYWGQGTLVTVSS VL: DIQMTQSPSSLSASVGDRVTITCRASQSISTFLNWYQQKPGKAPNLLIYGTSSLQSGVPSRFSGSGSGTDFTLTISSLQPEDFAAYYCQQTYSTPFTFGPGTKVDIK is 3.92 nM
